Tested on: HOP-92 NSCLC
Assay: NCI tumour cell line growth inhibition, 48 h
Where a SMILES comes first, the peptide text is derived from it. [ ]: non-standard residue; d: D form. The star is where a group is joined. Nle = CCCC[C@H](N)C(=O)O; Cbz = O=C(OCc1ccccc1)*

molecule | TGI
COc1ccc(NCc2cc(OC)cc(OC)c2)cc1 | > 100 µM
Cn1cnc2[nH]c(=O)[nH]c(=S)c21 | > 100 µM
CCOC(=O)C(NC(=O)c1ccccc1)(Nc1cc(C)on1)C(F)(F)F (configuration not stated) | > 100 µM
O=C1C=C(Nc2ccccc2C(=O)c2ccccc2)c2ccccc2C1=O | > 100 µM
C[Si](C)(C)/N=C1\N2C(=NC1(C(F)(F)F)C(F)(F)F)Sc1ccccc12 | > 50 µM
ClCc1nn(-c2ccccc2)c(CCl)c1CCl | 9.85 µM
COC(=O)C1SC(N(C)c2ccccc2)=NC12c1ccccc1Nc1ccccc12 (configuration not stated) | 59.4 µM
O=C(O)C(C(C(=O)O)P(=O)(O)O)P(=O)(O)O (configuration not stated) | > 100 µM
Cc1cn(C(=O)NC23CC4CC(CC(C4)C2)C3)c(=O)[nH]c1=O | > 100 µM
NC(C(=O)O)c1cc(=O)[nH]o1 (configuration not stated) | > 100 µM
O=C1NC(c2cccc3ccccc23)Nc2ccc(O)cc21 (configuration not stated) | 98.9 µM
CN(C)CCCNc1c2c(nc3ccc(Cl)cc13)CCCC2 | 27.8 µM
COc1ccc([C@H]2[C@H](C)C3=Nc4ccccc4CN32)cc1 | > 100 µM
CCCC[C@@H](C=O)NC(=O)[C@H](CC(C)C)NC(=O)[C@H](CC(C)C)NC(=O)OCc1ccccc1 (Cbz-Leu-Leu-[Nle]-aldehyde) | 6.22 µM
COc1ccc(/C(COc2ccc3c(c2)oc(=O)c2cc(OC)ccc23)=N/O)cc1 | > 100 µM
O=C(NNc1cn[nH]c(=O)n1)c1cccc2nc3ccccc3nc12 | > 100 µM
Clc1ccc(-c2noc(CN3CCCCC3)n2)cc1 | > 100 µM

* * *

System: K-562 leukemia
Assay: NCI tumour cell line growth inhibition, 48 h

molecule | TGI
Cn1cc(C2=C(c3cn(C)c4ccc(OCc5ccccc5)cc34)C(=O)NC2=O)c2ccccc21 | > 25 µM
COC(=O)C1=C(OC(=O)/C(=C/c2ccccc2)c2ccccc2)C(C(=O)OC)[C@@]2(O)[C@@H](C(=O)OC)[C@H](C)C[C@@H]1[C@@H]2C(=O)OC (stereo not given in full) | > 100 µM
Cc1c(C)c(S(=O)(=O)N(CCCCCCN)OCCCN)c(C)c2c1OC(C)(C)CC2 | > 28.3 µM
O=C1Cc2ccccc2N1/N=C\c1ccc([N+](=O)[O-])cc1 | > 100 µM
N#CC(C#N)=C(C(C#N)C#N)C(C#N)C#N | > 100 µM
O=C(O)C(C(C(=O)O)P(=O)(O)O)P(=O)(O)O (stereo not given) | > 100 µM
Cc1cn(C(=O)NC23CC4CC(CC(C4)C2)C3)c(=O)[nH]c1=O | > 100 µM
CCCOC(=O)c1ccc2c(c1)[N+](=O)C(C(=O)c1ccccc1)=C(C(F)(F)F)[N+]2=O | 4.12 µM
COc1cc(C(C)c2cc3c(cc2OCCN)OCO3)cc(OC)c1OC (stereo not given) | > 100 µM
CCc1cccc(CC)c1NC(=O)C(=O)Cc1nc2ccccc2o1 | > 100 µM

* * *

System: ACHN renal
Test: NCI tumour cell line growth inhibition, 48 h
In this section, each of the compounds is paired with its reported TGI.

compound | TGI
COc1ccccc1N1CCN(CC(O)COc2c(Br)c(Br)c(Br)c3c2OC(C)(C)C3)CC1 (stereo not given) | > 100 µM
Nc1nonc1-c1nc2cnccc2n1C1CCCCC1 | > 25 µM
O=c1c(Br)c(-c2ccccc2)[nH]c2ccccc12 | > 100 µM
C/C(O)=c1\cc(C#N)c(=C(C#N)C#N)nc1C | > 100 µM
Cc1nc2nn[nH]n2c(=O)c1CCO | > 100 µM
CCCCCc1cccc(=O)o1 | > 100 µM
O=C(CC(=O)Nc1ccc(C(=O)O)cc1)Nc1ccc(C(=O)O)cc1 | > 100 µM
CCOC(=O)N1CCN(c2ccc3ccc(N)nc3n2)CC1 | > 100 µM
COC(=O)Cc1c([C@H]2[C@H](CC(=O)OC)c3ccccc3N2C(=O)C(F)(F)F)[nH]c2ccccc12 | > 100 µM
CCCCSC(=CC(=O)c1cccc(C(=O)C=C(SCCCC)SCCCC)n1)SCCCC | > 100 µM
CC1=CP(=O)(OC(C)C)CC(C)=C1Cl (stereo not given) | > 100 µM
CCc1ccccc1N1C(=O)C(=O)C(c2nc3ccccc3s2)C(=O)C1=O | > 100 µM
ClCc1nn(-c2ccccc2)c(CCl)c1CCl | 7.62 µM
CC(C1CCCC1=O)C1CCCC1=O (stereo not given) | > 100 µM
COc1ccc(/C=C/C(=O)c2ccc(NC(=O)CSc3nnc(-c4ccc(OC)c(OC)c4)n3-c3ccccc3)cc2)cc1 | 6.1 µM
C=CC(=O)N1CC2(CCC(n3nc(-c4ccc(Oc5ccccc5)cc4)c4c(N)ncnc43)CC2)C1 | 0.362 µM
CSC(N)=Nc1cccc2ccccc12 | > 10 µM
COc1ccc(-n2sc3ncc(C)cc3c2=O)cc1 | 32.3 µM
c1ccc2c(c1)CN1CCCC1CN2 (stereo not given) | > 100 µM
Cc1ccc(-c2c(C#N)c(-c3ccccc3)c(C#N)c(=O)n2NS(=O)(=O)c2ccc(C)cc2)cc1 | > 100 µM
O=C(Nc1ccc(OCc2nnc(-c3ccc(Cl)cc3)o2)c(F)c1)Nc1ccc(Cl)c(Cl)c1 | 62.6 µM
OC1(c2ccccc2)CSc2ncnn21 (stereo not given) | > 100 µM
COCP1(=S)OC(C)CCN1C(C)C (stereo not given) | > 100 µM
Cc1ccc(C2(C)CC/C(=N/N=C3/CCC(C)(c4ccc(C)c(C)c4)c4cc(C)c(C)cc43)c3cc(C)c(C)cc32)cc1C (stereo not given) | > 100 µM
CCOC(=O)C(NC(=O)c1ccccc1)(Nc1cc(C)on1)C(F)(F)F (stereo not given) | > 100 µM
CCCCCC(=O)OCCOCCOCCOCCOCCOCc1ccccc1 | > 100 µM
O=c1c2ccccc2nc(-c2ccccc2Cl)n1NCC1(O)OCC(O)C(O)C1O (stereo not given) | > 100 µM
Cc1nc(Nc2ccc(Cl)cc2Cl)sc1C(=O)Nc1ccccc1 | > 100 µM
Cn1cc(C2=C(c3cn(C)c4ccc(OCc5ccccc5)cc34)C(=O)NC2=O)c2ccccc21 | > 25 µM
CN(C)CCCNc1c2c(nc3ccc(Cl)cc13)CCCC2 | 45.5 µM
O=S(CCc1ccccc1)Nc1ccccc1 (stereo not given) | > 100 µM
CCCc1n(Cc2ccc3ccccc3c2)c2ccccc2[n+]1Cc1ccc2ccccc2c1 | 2.57 µM
O=c1nc2n(c3nsnc13)CCO2 | > 100 µM
COCn1cnc2c(=O)n(-c3ccc(C)cc3)c(=S)n(-c3ccc(C)cc3)c21 | > 100 µM
CC(=O)Nc1ccc(C2C(C(=O)Nc3ccccc3C)=C(C)NC(C)=C2C(=O)Nc2ccccc2C)cc1 | > 100 µM
O=C1CC(c2ccccc2Cl)C2(C(=O)NC(=S)NC2=O)C(c2ccccc2Cl)C1 (stereo not given) | 55.7 µM
N#Cc1nc(-c2ccccc2C(=O)O)oc1N | > 100 µM
O=C1OC(c2ccc(O)c(F)c2)(c2ccc(O)c(F)c2)c2cccc3cccc1c23 | > 25 µM
CC1OC2=N[C@@H]1C(=O)N[C@@H](Cc1ccccc1)C1=N[C@H](C(=O)N[C@@H](Cc3ccccc3)C3=N[C@H](C(=O)N[C@H]2Cc2ccccc2)C(C)O3)C(C)O1 (stereo not given in full) | > 100 µM
CC(C)CC(N=Cc1nc(-c2ccccc2)oc1O)C(=O)O (stereo not given) | > 100 µM
Clc1ccc(-c2ccc(CNCC3CCNCC3)o2)c(-c2ccccc2)c1 | 3.06 µM
COc1cc2c3c(c1O)N=NC=3CCN=2 | 33.8 µM
CC12CCC3(C1)[C@H](CC2=O)C[C@@H](OC(=O)c1ccccc1)C1C(C)(CO)CCC[C@@]13C (stereo not given in full) | > 100 µM
O=C1Cc2ccccc2N1/N=C\c1ccc([N+](=O)[O-])cc1 | > 100 µM
CCc1nc(N)nc(N)c1-c1ccc2c(c1)nnn2CCc1ccccc1 | > 70.1 µM

* * *

System: UACC-257 melanoma
Assay: NCI tumour cell line growth inhibition, 48 h
endpoint: TGI (µM)

compound | endpoint | comparative_sign | reported_value
N#CC1=C(Cl)NC(Cl)=C(C#N)C1c1ccc(Cl)cc1 | TGI | = | 34.7
COc1cc(/C=C2\N=C(c3ccccc3)N(c3cc4cc(Sc5ccccc5)ccc4[nH]3)C2=O)cc(OC)c1OC | TGI | = | 40.3
CCN(CC)S(=O)(=O)c1ccc2nc(NC(=O)OC)[nH]c2c1 | TGI | > | 100
O=C(O)c1ccc(C=C2Sc3ccccc3S2)cc1 | TGI | > | 100
O=C(O)CCC(N=C(C(=NC(CCC(=O)O)C(=O)O)c1ccccc1)c1ccccc1)C(=O)O (stereo not given) | TGI | > | 100
Cc1cn(C2CC(Br)C(COC(c3ccccc3)(c3ccccc3)c3ccccc3)O2)c(=O)[nH]c1=O (stereo not given) | TGI | = | 29.8
O=C(N/N=C\c1c(O)ccc2ccccc12)c1ccncc1 | TGI | > | 25
O=C1OC(c2ccc(O)c(F)c2)(c2ccc(O)c(F)c2)c2cccc3cccc1c23 | TGI | > | 25
CCc1cccc(CC)c1NC(=O)C(=O)Cc1nc2ccccc2o1 | TGI | > | 100
O=S(=O)(c1ccccc1)[C@H]1[C@@H]2O[C@@H]2C[C@@H]1O | TGI | > | 100
Cc1ccc2c(c1)c(C1=C(c3cn(C)c4ccccc34)C(=O)NC1=O)cn2C | TGI | > | 24.2
CC(C)(C)OCC1NC(=O)[C@@H]2Cc3c([nH]c4ccccc34)C(C3CCCCC3)N2C1=O (stereo not given in full) | TGI | = | 41
C[C@]12CC[C@@H]3c4ccc(O)cc4CC[C@H]3[C@@H]1CC[C@@H]2NS(=O)(=O)c1cccc(OC(F)(F)F)c1 | TGI | = | 6.5
O=C1CC(c2ccccc2Cl)C2(C(=O)NC(=S)NC2=O)C(c2ccccc2Cl)C1 (stereo not given) | TGI | = | 30.6
ClCc1nn(-c2ccccc2)c(CCl)c1CCl | TGI | = | 25
COc1ccc(-c2c3ccccc3c(-c3ccc(OCCBr)cc3)c3ccccc23)cc1 | TGI | > | 100
O=C1OC(c2cccc(C(F)(F)F)c2)(c2cccc(C(F)(F)F)c2)c2ccc3ccccc3c21 | TGI | > | 100
COC(=O)c1ccc2[nH]c(O)c(C(=Nc3ccc(N(C)C(=O)CN4CCN(C)CC4)cc3)c3ccc(OC)cc3)c2c1 | TGI | = | 22.8
CCCCCCC[CH2][Sn]([Cl])([Cl])[CH2]CCCCCCC | TGI | = | 15.9
Cc1cn(C(=O)NC23CC4CC(CC(C4)C2)C3)c(=O)[nH]c1=O | TGI | > | 100
